Target: bovine erythrocyte CA II (bCA-II) (Bos taurus)
Sequence (P00921 whole entry): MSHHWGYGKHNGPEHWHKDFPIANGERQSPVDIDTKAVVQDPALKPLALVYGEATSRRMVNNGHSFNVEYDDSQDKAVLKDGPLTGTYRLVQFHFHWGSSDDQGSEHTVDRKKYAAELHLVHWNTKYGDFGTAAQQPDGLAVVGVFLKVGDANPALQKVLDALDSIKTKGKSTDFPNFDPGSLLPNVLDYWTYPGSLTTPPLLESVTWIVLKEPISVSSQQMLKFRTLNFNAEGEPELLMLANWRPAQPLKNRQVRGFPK
Test: In vitro carbonic anhydrase inhibition assay
Format: biochemical
Conditions: bCA-II, substrate 4-NPA, 25 °C, pH 7.4; test concentration not given
Below, each entry is listed alongside its reported % inhibition.

>  <Smiles>
CCCSc1nc2ccccc2n1CC(=O)NN=Cc1cccc(OC)c1

>  <Unit string>
%

>  <% inhibition>
22.8

$$$$
>  <Smiles>
CCCSc1nc2ccccc2n1CC(=O)NN=Cc1ccc(F)cc1

>  <Unit string>
%

>  <% inhibition>
84.3

$$$$
>  <Smiles>
CCCSc1nc2ccccc2n1CC(=O)NN=Cc1cccc(O)c1

>  <Unit string>
%

>  <% inhibition>
90.7

$$$$
>  <Smiles>
CCCSc1nc2ccccc2n1CC(=O)NN=Cc1ccc(OC)c(OC)c1

>  <Unit string>
%

>  <% inhibition>
38.1

$$$$
>  <Smiles>
CCCSc1nc2ccccc2n1CC(=O)NN=Cc1ccc(O)c(OC)c1

>  <Unit string>
%

>  <% inhibition>
81.2

$$$$
>  <Smiles>
CCCSc1nc2ccccc2n1CC(=O)NN=Cc1c(Cl)cccc1Cl

>  <Unit string>
%

>  <% inhibition>
67.6

$$$$
>  <Smiles>
CCCSc1nc2ccccc2n1CC(=O)NN=Cc1ccccc1

>  <Unit string>
%

>  <% inhibition>
83.0

$$$$
>  <Smiles>
CCCSc1nc2ccccc2n1CC(=O)NN=Cc1ccc(N(CC)CC)cc1

>  <Unit string>
%

>  <% inhibition>
5.6

$$$$
>  <Smiles>
CCCSc1nc2ccccc2n1CC(=O)NN=Cc1cccs1

>  <Unit string>
%

>  <% inhibition>
89.8

$$$$
